target: fusion glycoprotein of the RSV used in the neutralization assay of Example 1 (respiratory syncytial virus (strain not stated)); experiment: cell-based or functional assay
property-name: RSV Neutralization - IC50 (ng/mL)
The reply should be a number in ng/mL, with the unit left off.

// below: answered binders
[[record]]
binder = "MPK165 (antibody, V domains shown) VH: EVQLVQSGAEVKKPGESLKISCRASGYSFNNYWVGWVRQVPGKGLEWMGFIYPFDSDTKYSPSFEGHVTISADKSIDTAYLQWSSLRSSDTAIYYCARFTFGIALVAGDVTGGGQAFEVWGQGTLVTVSS VL: EIVMTQSPATLSVSPGERATLSCRASQSVAGKLAWYQQRPGQAPRLIIYAASTRAAGVPARFSGSGSETEFTLTISSLQSEDFAVYYCHHYSNWPQAFGQGTRLDIK"
test_result = 1

[[record]]
binder = "MPK186 (antibody, V domains shown) VH: QVQLVQSGAEVKKPGESLKISCQGSGYSFINYWIGWVRQMPGKGLEWMGIIYPFDSETKYSPSFQGHVTISADKSINTAYVQWSSLKASDTAMYYCARFTFGIAVVTDDVYGEAQGFDIWGQGTMVTVSS VL: DIVMTQTPATLSVSPGERATLSCRASQSVDGNLAWYQQRPGQAPRLLIYGASTRATGVPARFSGSGSETEFTLTISSLQSEDFAVYYCQHYSNWPQAFGQGTRLDIK"
test_result = 1.2

[[record]]
binder = "MPK171-v2 (antibody, V domains shown) VH: QVQLVQSGAEVKKPGESLKISCKGSGYSFINYWIGWVRQMPGKGLEWMGIIYPFDSDTKYSPSFQGHVTISADKSINTAYVQWSSLKASDTAMYYCARFTFGIAVVTDDVSGEGHAFDIWGQGTMVTVSS VL: QSVLTQSPATLSVSPGERATLSCRASQSVAGNLAWYQQRPGQAPRLLIYGASTRATGVPARFSGSGSETEFTLTISSLQSEDFAVYYCQQYSNWPQAFGQGTRLDIK"
test_result = 1


State the recorded RSV Neutralization - IC50 for this entry: MPK161-v1 (antibody, V domains shown) VH: EVQLVQSGVEAKKPGESLKISCRASGYSFVNFWIGWVRQVPGKGLEWMGFIYPFDSDTKYGPSFEGHVIISADKSTNTAYLEWRSLRASDSAMYYCARFTFGIALVAGDVTGGGQAFEVWGQGTLVSVSS VL: AIWMTQSPSTLSASVGDRVTVTCRASLSIGTWLAWYQHKPGKAPKFLIYKASSLESGVPSRFSGSGSGTEFTLTISSLQPDDFATYYCQQYDSYPFTFGGGTKVEIK
2.8

State the recorded RSV Neutralization - IC50 for this entry: MPK151 (antibody, V domains shown) VH: EVQLVESGGGLVKPGGSLRLSCAASGLTISGYYMIWIRQAPGKGLEWISDISASSTYTDYAESVKGRFSISRDNGQNTVYLQMNSLRAEDTAVYYCATEQTPSPGPFDLWGQGTLVTVSS VL: QSVLTQPPSVSGAPGQKITISCTGGSSNFGAGYDVHWYQQFPGTSPKLLIYRNTFRPSGVPDRFSGSKSGTSASLAITGLQAEDEADYYCQSYDRSLSGWVFGGGTKLTVL
37.5

State the recorded RSV Neutralization - IC50 for this entry: MPK198 (antibody, V domains shown) VH: EVQLVQSGAEVKKPGESLKISCKGSGYSFINYWIGWVRQMPGKGLEWMGIIYPFDSDTKYSPSFQGHVTISADKSINTAYVQWSSLKASDTAMYYCARFTFGIAVVTDDVSGEGQAFDIWGQGTMVTVSS VL: EIVMMQSPATLSVSPGERATLSCRASQSVAGNLAWYQQRPGQAPRLLIYGASTRATGVPARFSGSGSETEFTLTISSLQSEDFAVYYCQQYSNWPQAFGQGTRLDIK
1.2

Data provenance: patent US20260028391A1
